Entries and their IC50 values follow.
Target: T1, biotinylated dimeric human CD48 protein expressed as a fusion with mouse IgG2a Fc (human, biotinylated)
T1 construct: also called bio-hCD48-mFc; Dimeric human CD48-mFc
T1 chain: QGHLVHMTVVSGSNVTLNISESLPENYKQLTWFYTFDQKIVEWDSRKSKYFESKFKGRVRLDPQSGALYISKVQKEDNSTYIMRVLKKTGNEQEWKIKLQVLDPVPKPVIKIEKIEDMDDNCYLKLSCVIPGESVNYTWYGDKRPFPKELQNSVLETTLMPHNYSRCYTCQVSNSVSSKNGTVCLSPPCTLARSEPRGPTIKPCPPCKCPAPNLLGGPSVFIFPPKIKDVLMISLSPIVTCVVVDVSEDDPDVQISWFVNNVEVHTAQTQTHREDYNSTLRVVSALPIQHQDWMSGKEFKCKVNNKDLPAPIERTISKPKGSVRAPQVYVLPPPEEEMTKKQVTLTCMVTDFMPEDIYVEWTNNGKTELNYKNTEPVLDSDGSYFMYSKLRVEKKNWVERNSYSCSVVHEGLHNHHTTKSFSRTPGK
Assay: competition ELISA; blocks bio-hCD48-mFc binding to coated h2B4-hFc

Consider the reported IC50 for these binders:
H2M1763N (antibody, mouse IgG2, V domains shown, Human variable domains, mouse IgG2 Fc (H2M)) VH: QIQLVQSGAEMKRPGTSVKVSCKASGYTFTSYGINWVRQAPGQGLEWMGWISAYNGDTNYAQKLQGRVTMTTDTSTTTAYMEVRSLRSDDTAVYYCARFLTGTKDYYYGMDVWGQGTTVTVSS VL: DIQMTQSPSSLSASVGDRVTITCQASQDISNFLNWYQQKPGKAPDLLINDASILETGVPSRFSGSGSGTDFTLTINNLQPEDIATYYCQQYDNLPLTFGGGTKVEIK = 0.0088 nM
H2M1709N (antibody, mouse IgG2, V domains shown, Human variable domains, mouse IgG2 Fc (H2M)) VH: QVQLVQSGAEVKKPGASVKVSCKVSGYTLTELSIHWVRQAPGKGLEWMGGFDPEDGETIYAQKFQGRVNMTEDTSTDTAYMELSSLRSDDTTVYFCASLLPYFDYWGQGTLVTVSS VL: EIVLTQSPGTLSLSPGERATLSCRASQSVSSSYLAWYQQKPGQAPRLLIYGASSRATGIPDRFSGSGSGTDFTLSISRLEPEDFAVYFCQQYGSSMYTFGQGTKLEIK = 0.045 nM

We now examine a further binder.
[Q] Consider the binder H2M1713N (antibody, mouse IgG2, V domains shown, Human variable domains, mouse IgG2 Fc (H2M)) VH: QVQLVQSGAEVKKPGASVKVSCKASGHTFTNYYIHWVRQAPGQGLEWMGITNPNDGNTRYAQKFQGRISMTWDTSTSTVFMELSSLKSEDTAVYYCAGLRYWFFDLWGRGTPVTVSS VL: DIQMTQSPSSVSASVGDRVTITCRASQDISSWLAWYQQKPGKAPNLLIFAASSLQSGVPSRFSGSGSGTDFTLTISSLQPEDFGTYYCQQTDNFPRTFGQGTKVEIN and give its measured IC50.
[A] 0.026 nM
